- experimentSummary: in vitro
- protocolConditions: PAMPA
- Description: Effective permeability of the compound after 18 hrs by PAMPA
experimentalEndpoint: Papp at 18 h (×10⁻⁶ cm/s)

INSERT INTO measurements (compound, measuredresult) VALUES
  ('COc1cc2c(cc1OC)C(=O)C(CC1CCN(Cc3ncccc3C)CC1)C2 (configuration not stated)', 8.4),
  ('COc1cc2c(cc1OC)C(=O)C(CC1CCN(Cc3ccc4cccc(O)c4n3)CC1)C2 (configuration not stated)', 6.1),
  ('COc1cc2c(cc1OC)C(=O)C(CC1CCN(Cc3cccc(F)c3)CC1)C2 (configuration not stated)', 11.5),
  ('COc1cc2c(cc1OC)C(=O)C(CC1CCN(Cc3cccc(C)n3)CC1)C2 (configuration not stated)', 9.7),
  ('COc1cc2c(cc1OC)C(=O)C(CC1CCN(Cc3cccc(C)c3)CC1)C2 (configuration not stated)', 12.6),
  ('COc1cc2c(cc1OC)C(=O)C(CC1CCN(Cc3ccc(O)c4ncccc34)CC1)C2 (configuration not stated)', 8.8),
  ('COc1cc2c(cc1OC)C(=O)C(CC1CCN(Cc3ccccc3F)CC1)C2 (configuration not stated)', 13.7);

* * *

# IC50 per entry for Cholinesterase (Homo sapiens, UniProt P06276)
experimentalEndpoint: IC50 (µM)

INSERT INTO measurements (molecule, systemname, experimentalendpoint, measuredresult) VALUES
  ('COc1cc2c(cc1OC)C(=O)C(CC1CCN(Cc3cccc(C)c3)CC1)C2 (stereo unspecified)', 'Cholinesterase (Homo sapiens, UniProt P06276)', 'IC50', 28.1),
  ('COc1cc2c(cc1OC)C(=O)C(CC1CCN(Cc3ccc(Cl)cc3)CC1)C2 (stereo unspecified)', 'Cholinesterase (Homo sapiens, UniProt P06276)', 'IC50', 81.6),
  ('COc1cc2c(cc1OC)C(=O)C(CC1CCN(Cc3ccc([N+](=O)[O-])cc3)CC1)C2 (stereo unspecified)', 'Cholinesterase (Homo sapiens, UniProt P06276)', 'IC50', 85.8),
  ('COc1cc2c(cc1OC)C(=O)C(CC1CCN(Cc3cccc(Cl)c3)CC1)C2 (stereo unspecified)', 'Cholinesterase (Homo sapiens, UniProt P06276)', 'IC50', 50.2),
  ('COc1cc2c(cc1OC)C(=O)C(CC1CCN(Cc3ccccc3Cl)CC1)C2 (stereo unspecified)', 'Cholinesterase (Homo sapiens, UniProt P06276)', 'IC50', 18.8),
  ('COc1cc2c(cc1OC)C(=O)C(CC1CCN(Cc3cccc(C)n3)CC1)C2 (stereo unspecified)', 'Cholinesterase (Homo sapiens, UniProt P06276)', 'IC50', 65.7),
  ('COc1cc2c(cc1OC)C(=O)C(CC1CCN(Cc3cccc(Cl)n3)CC1)C2 (stereo unspecified)', 'Cholinesterase (Homo sapiens, UniProt P06276)', 'IC50', 78.7),
  ('COc1cc2c(cc1OC)C(=O)C(CC1CCN(Cc3cccc(F)n3)CC1)C2 (stereo unspecified)', 'Cholinesterase (Homo sapiens, UniProt P06276)', 'IC50', 38.9),
  ('COc1cc2c(cc1OC)C(=O)C(CC1CCN(Cc3cccc(F)c3)CC1)C2 (stereo unspecified)', 'Cholinesterase (Homo sapiens, UniProt P06276)', 'IC50', 26.7),
  ('COc1cc2c(cc1OC)C(=O)C(CC1CCN(Cc3ccccc3[N+](=O)[O-])CC1)C2 (stereo unspecified)', 'Cholinesterase (Homo sapiens, UniProt P06276)', 'IC50', 91.2),
  ('COc1cc2c(cc1OC)C(=O)C(CC1CCN(Cc3ccccc3C(F)(F)F)CC1)C2 (stereo unspecified)', 'Cholinesterase (Homo sapiens, UniProt P06276)', 'IC50', 41.4);

* * *

# pIC50 per entry for Cholinesterase (Equus caballus, UniProt P81908)
pIC50: −log10 of the molar value.
experimentalEndpoint: pIC50

INSERT INTO measurements (compound, measuredresult) VALUES
  ('COc1cc2c(cc1OC)C(=O)C(CC1CCN(Cc3cccc(Cl)n3)CC1)C2 (stereo unspecified)', 4.50),
  ('COc1cc2c(cc1OC)C(=O)C(CC1CCN(Cc3cccc(Cl)c3)CC1)C2 (stereo unspecified)', 4.16),
  ('COc1cc2c(cc1OC)C(=O)C(CC1CCN(Cc3cccc([N+](=O)[O-])c3)CC1)C2 (stereo unspecified)', 4.37),
  ('COc1cc2c(cc1OC)C(=O)C(CC1CCN(Cc3ccc(F)cc3)CC1)C2 (stereo unspecified)', 5.64),
  ('COc1cc2c(cc1OC)C(=O)C(CC1CCN(Cc3cccc(F)c3)CC1)C2 (stereo unspecified)', 5.58),
  ('COc1cc2c(cc1OC)C(=O)C(CC1CCN(Cc3ccc(O)c4ncccc34)CC1)C2 (stereo unspecified)', 5.12);

* * *

# log10 of IC50 per entry for Acetylcholinesterase (Electrophorus electricus)
experimentalEndpoint: log10 of IC50 (log10 of the value in nM)

INSERT INTO results (compound, measuredresult) VALUES
  ('COc1cc2c(cc1OC)C(=O)C(CC1CCN(Cc3ccccc3C)CC1)C2 (stereo not given)', 2.26),
  ('COc1cc2c(cc1OC)C(=O)C(CC1CCN(Cc3cccc(Br)n3)CC1)C2 (stereo not given)', 2.40),
  ('COc1cc2c(cc1OC)C(=O)C(CC1CCN(Cc3ccccc3C(F)(F)F)CC1)C2 (stereo not given)', 2.85),
  ('COc1cc2c(cc1OC)C(=O)C(CC1CCN(Cc3ccccn3)CC1)C2 (stereo not given)', 3.04),
  ('COc1cc2c(cc1OC)C(=O)C(CC1CCN(Cc3ccc(O)c4ncccc34)CC1)C2 (stereo not given)', 4.44);

* * *

- systemName: Acetylcholinesterase (Homo sapiens, UniProt P22303)
- Sequence (P22303 whole entry): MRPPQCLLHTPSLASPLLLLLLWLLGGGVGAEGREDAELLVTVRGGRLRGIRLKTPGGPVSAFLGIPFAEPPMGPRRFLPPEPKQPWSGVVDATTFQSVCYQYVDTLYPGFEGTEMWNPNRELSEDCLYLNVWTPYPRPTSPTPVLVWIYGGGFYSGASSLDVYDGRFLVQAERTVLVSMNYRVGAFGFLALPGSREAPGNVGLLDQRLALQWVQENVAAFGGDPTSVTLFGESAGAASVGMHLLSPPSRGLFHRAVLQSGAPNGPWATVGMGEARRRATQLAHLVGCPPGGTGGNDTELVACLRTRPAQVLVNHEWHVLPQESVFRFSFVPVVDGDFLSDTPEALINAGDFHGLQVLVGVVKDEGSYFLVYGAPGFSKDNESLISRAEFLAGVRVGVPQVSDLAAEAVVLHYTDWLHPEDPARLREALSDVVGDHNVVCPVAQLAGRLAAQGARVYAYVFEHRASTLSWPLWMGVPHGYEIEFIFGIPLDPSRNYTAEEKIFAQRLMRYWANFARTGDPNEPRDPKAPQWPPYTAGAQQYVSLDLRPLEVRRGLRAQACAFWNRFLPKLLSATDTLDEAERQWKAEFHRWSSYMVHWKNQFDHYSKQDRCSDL
experimentalEndpoint: log10 IC50 (log10 of the value in nM)

INSERT INTO assay_data (compound, systemname, experimentalendpoint, measuredresult) VALUES
  ('COc1cc2c(cc1OC)C(=O)C(CC1CCN(Cc3ccccc3Cl)CC1)C2 (configuration not stated)', 'Acetylcholinesterase (Homo sapiens, UniProt P22303)', 'log10 IC50', 1.99),
  ('COc1cc2c(cc1OC)C(=O)C(CC1CCN(Cc3ncc(C)cc3C)CC1)C2 (configuration not stated)', 'Acetylcholinesterase (Homo sapiens, UniProt P22303)', 'log10 IC50', 2.91),
  ('COc1cc2c(cc1OC)C(=O)C(CC1CCN(Cc3cccc(Cl)n3)CC1)C2 (configuration not stated)', 'Acetylcholinesterase (Homo sapiens, UniProt P22303)', 'log10 IC50', 2.95),
  ('COc1cc2c(cc1OC)C(=O)C(CC1CCN(Cc3cccc(C)c3)CC1)C2 (configuration not stated)', 'Acetylcholinesterase (Homo sapiens, UniProt P22303)', 'log10 IC50', 1.94),
  ('COc1cc2c(cc1OC)C(=O)C(CC1CCN(Cc3ccc(C)cc3)CC1)C2 (configuration not stated)', 'Acetylcholinesterase (Homo sapiens, UniProt P22303)', 'log10 IC50', 2.10),
  ('COc1cc2c(cc1OC)C(=O)C(CC1CCN(Cc3cccc(C)n3)CC1)C2 (configuration not stated)', 'Acetylcholinesterase (Homo sapiens, UniProt P22303)', 'log10 IC50', 1.86),
  ('COc1cc2c(cc1OC)C(=O)C(CC1CCN(Cc3ccccn3)CC1)C2 (configuration not stated)', 'Acetylcholinesterase (Homo sapiens, UniProt P22303)', 'log10 IC50', 2.17);
